Data origin, for the record: patent US20240352105A1

In this section, each of the binders is paired with its reported EC50.
# tested_system: T1, recombinant His-tagged Can f1 (dog (Canis familiaris), UniProt O18873 19-174)
# T1 construct: also called Can f1-His; recombinant Can f1; not shown: His tag
# T1 sequence (O18873 19-174 limits assumed): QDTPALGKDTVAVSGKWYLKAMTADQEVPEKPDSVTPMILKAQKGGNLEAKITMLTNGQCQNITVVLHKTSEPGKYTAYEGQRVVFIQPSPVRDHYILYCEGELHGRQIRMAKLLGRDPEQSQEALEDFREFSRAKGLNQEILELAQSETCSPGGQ
# protocol_text: ELISA, antigen coated
Respond with the bare value in µg/mL.

Any idea what its EC50 is? The binder is SDAB22112-1-D12-3 (VHH, anti-Can f1 alpaca VHH) VHH: QVQLVESGGGLVQPGGSLRLSCAASGFTFSNYGMSWVRQAPGKGLEWVSDVNSSGSRRFYVDSVKGRFTISRDNAKNTVFLQMNSLKPEDSAVYYCVKLAEAGTLIHVGSWGQGTRVTVSS 10.4

Dear colleague, I am looking for the recorded EC50 of the following binder: SDAB22112-1-B6-B05 (VHH, anti-Can f1 alpaca VHH) VHH: QLQLVESGGGLVQPGGSLRLSCAASRSIFSSYVMAWYRRAPGKKRELVASIANVGSNTDYASFAKGRFTISRDDDKSRDNDKITVYLQMNSLNPEDTAVYYCNAWLGAGSDYWGQGTQVTVSS 8.42
